B1: TPR t1 (parent)
chain: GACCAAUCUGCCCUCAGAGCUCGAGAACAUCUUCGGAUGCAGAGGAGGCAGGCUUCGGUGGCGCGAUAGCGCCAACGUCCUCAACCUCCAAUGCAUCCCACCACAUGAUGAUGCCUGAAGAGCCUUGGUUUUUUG

- Variants of: B1
- Protocol description: polymerase ribozyme fitness, log enrichment relative to wild type (log ratio); higher = more active; in vitro selection for triplet polymerase activity
Metric name: polymerase ribozyme fitness (log ratio)

INSERT INTO measurements (polymer_sequence, metric_name, measured_result) VALUES
  ('GACCAAUCUGACCUCAGAGCUCGAGAACAUCUUCGGAUGCAGAGGAGGCAGGCUUCGGUGGCGCGAUAGCGCCAACGUCCUCAACCUCCAAUGCAUCCCCCCACAUGAUGAUGCCUGAAGAGCCUUGGUUUUUUG [C11A A100C]', 'polymerase ribozyme fitness (log ratio)', -2.81),
  ('GACCAAUCUGCCCUCAGAGCUCGAGAACAUCUUCGGAUGCAGAGGCGGCAGUCUUCGGUGGCGCGAUAGCGCCAACGUCCUCAACCUACAAUGCAUCCCACCACAUGAUAAUGCCUGGAGAGCCUCGGUUUUUUG [A46C G52U C88A G110A A118G U126C]', 'polymerase ribozyme fitness (log ratio)', -3.39),
  ('GACCAAUCUGCCCGCAGAGCUCGAGAACAUCUUCGGAGGCAGAGGAGGCAGGCUUCGGUGGCGCGAUAGCGCCAACGUCCUCAACCUCCAAUGCAUCCCACCACAUGAUGAUGCCUGAAGAGCCUUGGUUUUUUG [U14G U38G]', 'polymerase ribozyme fitness (log ratio)', -3.56),
  ('GACCAAUCUGCCCUCAGAGCUCGAGAACAUCUUCGGAUGCAGAGGAGGCAGGCUUCGGUGGCGCGAUAGCGCCAACGUCCUCAACCUCCAAUGAAUCCCACCACAUGAUCAUGCCUGAACAGCCUUGGUUUUUUG [C94A G110C G120C]', 'polymerase ribozyme fitness (log ratio)', -6.12),
  ('GACCAAUGUGCCCUCAGAGCUCGAGAAAAUCUUCGGAUGCAGAGGAGGCAGGCUUCGGUGGCGCGAUAGCGACAACGUCCUCAACCUCCAAUGCAUCCCACCACAUGAUGAUGCCUGAAGAGCCUUGGUUUUUUG [C8G C28A C72A]', 'polymerase ribozyme fitness (log ratio)', -4.41),
  ('GACCAAUCUGCCCUCAGAGCUCGAGAACAUCUUCGGAUGCAGAGGAGGCAGGCUUCGGUGGCGCGAUAGGGCCAACGUCCUCAACCUCCAAUGCAUCCCACCACAUGAUGAUGCCUGAAGAGCCAUGGUUUUUUG [C70G U125A]', 'polymerase ribozyme fitness (log ratio)', -2.85),
  ('GACCAAUCUGCCCUCAGAGCUCGAGAACAUCUUCGGAUGCAGAGGAGGCAGGCUUCGGUGGCGCGAUAGCGCCAACGUCCUCAACCUCCAAUGGAUCCCUCCACAUGAUGAUGCCUGAAAAGCCUUGGUUUUUUG [C94G A100U G120A]', 'polymerase ribozyme fitness (log ratio)', -0.669),
  ('GACCAAUCUGCCAUCAGAGCUCGAGAACAUCUUCGGAUGCAGAGGAGGCAGGCUUCGGUGGCGCGAUAGCGCCAACGUCCUCAACCUCCAAUGCAUCCCUCCACAUGAUGAUGCCUGAAGAGCCUUGGUUGUUUG [C13A A100U U131G]', 'polymerase ribozyme fitness (log ratio)', -2.21),
  ('GACCAAUCUGCCCUCAGAGCUCGAGAACAUCUUCGGAUGCAGACGAGACAGGCUUCGGUGGCGCGAUAGCGCCAACGUCCUCAACCUCCAAUGCAUCCCACCACAUGAUGAUGCCUGAAGAGCCUUGGUUUUUUG [G44C G48A]', 'polymerase ribozyme fitness (log ratio)', -0.967),
  ('GACCAAUCUGCCCUCAGAGCUCGAGAACAUCUUCGGAUGCAGAGGAGGCAGGCUUCGGUGGCGCGAUAGCGCCAACGUCCUCAACCUCCAAUGCAUCCUACCACAUGAUGAUGUCUGAAGAGCCUUGGUUUUUUG [C99U C114U]', 'polymerase ribozyme fitness (log ratio)', -4.12),
  ('GACCAAUCUGCCCUCAGAGCUCGAGAACAUCUUCGGAUGCAGAGGAGGCAGGCUUCGGCGGCGCGAUAGCGCCAACGUCCUCAACCUCCAAUGCAUCCCACCACAUGAUGAUUCCUGAAGAGCCUUGGUUUUUUG [U59C G113U]', 'polymerase ribozyme fitness (log ratio)', -3.62),
  ('GACCAAACUGCCCUCAGAGCUCGAGAACAUCUUCGGAUACAGAGGAGGCAGACUUCGGUGGCGCGAUAGCGCCAACGUCCUCAACCUCCAAUGCAUCCCACCACAUGAUGAUGCCUGAAGAGCCUUGGUUUUUUG [U7A G39A G52A]', 'polymerase ribozyme fitness (log ratio)', 0.0728),
  ('GACCAAUCUCCCCUCAGAGCUCGAGAACAUCUUCGGAGGCACAGGAGGCAGGCUUCGGUGGCGCGAUAGCGCCAACGUCCUCAACCUCCAAUGCAUCCCACCACAUGAUGAUGCCUGAAGUGCCUUGGUUUUUUG [G10C U38G G42C A121U]', 'polymerase ribozyme fitness (log ratio)', -1.8),
  ('GACCAAUCUGCCCUCAGAGCUCGAGAACAUCUUCCGAUGCAGAGGAGGCAGGCUUCGGUGGCCCGAUAGCGCCAACGUCCUCAACCUCCAAUGCAUCCCACCACAUGAUGAUGCCUGAAGAGCCUUGGUUUUUUG [G35C G63C]', 'polymerase ribozyme fitness (log ratio)', -5.87),
  ('GACCAACCUGCCCUCAGAGCGCGAGAACAUCUUCGGAUGCAGAGGAGGCAGGCUUCGGUGGCGCGAUAGCGCCAACGUCCUCAACCUCCAAUGCAGCCCACCACAUGAUGAUGCCUGAAGAGCCUUGGUUUUUUG [U7C U21G U96G]', 'polymerase ribozyme fitness (log ratio)', -1.67),
  ('GACCAAUGUGCCCUCAGAGCUCGAGAACAUCUUCGGAUGCAGAGGAGGGUGGCUUCGGUGGCGCGAUAGCGCCAACGUUCUCAACCUCCAAUGCAUCCCACCACAUGAUGAUGCCUGAAGAGCCUUGGUUCUUUG [C8G C49G A50U C79U U131C]', 'polymerase ribozyme fitness (log ratio)', -2.75),
  ('GACCAAUCUGCCCUCAGAGCUCGAGAACAUCUUCGGAUGCAGCGGAGGCAUGCUUUGAUGGCGCGAUAGCGCCAACGUCAUCAACCUCGAAUGCAUCCCAACACAUGAUGAUGCCUGAAGAUACUUAGUUUUUUG [A43C G51U C56U G58A C80A C89G C101A G122U C123A G127A]', 'polymerase ribozyme fitness (log ratio)', -6.31),
  ('GACCAAUCUGCCCUCAGAGCUCGAGAACAUCUUCGGAUGCAGAGGAGGCAGGCUUCGGUGGUGCGAUACCGCCAACGUCCUCAACCUCCAAUGCAUCCCACCACAUGAUGAUGCCUGAAGAGCCUUGGUUUUUUG [C62U G69C]', 'polymerase ribozyme fitness (log ratio)', -3.19),
  ('GACCAAUCUGCCCUCAGAGCUCGAGAACAUCUUCGGAUGCAGAGGAGGCAGGCUUCGGUGGCGCGAUAGCGCCAACGUCCUGAACCUCCAAUGCAUCCCACCACAUGAUGAUGCCUGAAGAGUCUUGGUUUUUUG [C82G C123U]', 'polymerase ribozyme fitness (log ratio)', 0.314),
  ('GACCAAUCGGCCCUCAGAGCUCGAGAACAUCUUCGGAUGCAGAGGAGGCAGGCUUCGGUGGCGCGAUAGCGCCAACGUCCUCAACCUCCAAUGCAUCCCACCACAUGAAGAUGCCUGAAGAGCCUUGGUUUUUUG [U9G U109A]', 'polymerase ribozyme fitness (log ratio)', -3.09),
  ('GACCAAUCGGCCCUCAGAGCUCGAGAACAUCUUCGGAUGCAGAGGAGGCAGGCUUCGGUGGCGCGAUAGCGGCAACGUCCUCAACAUCCAAUGCAUCCCACCACAUGAUGAUGCCUGAAGAGCCUUGGUUUUUUG [U9G C72G C86A]', 'polymerase ribozyme fitness (log ratio)', -1.02),
  ('GACCAAUCUGCCCUCAGAGCUCGAGAACAUCUUCGGAUGCAGAGGAGGCAGGCUUCGGUAGCGCGAUAGCGCCAACGUCCUCAACCUCCAAUGCAUCCCACCACAAGAUGAUGCCUGAAGAGCCUUGGUUUUUUG [G60A U106A]', 'polymerase ribozyme fitness (log ratio)', -0.15);
